Listed here are molecules together with their documented composite z-score.
# Assay Target: Neurogenic locus notch homolog protein 2 (Homo sapiens) (UniProt Q04721)
# Sequence (Q04721 whole entry, looked up): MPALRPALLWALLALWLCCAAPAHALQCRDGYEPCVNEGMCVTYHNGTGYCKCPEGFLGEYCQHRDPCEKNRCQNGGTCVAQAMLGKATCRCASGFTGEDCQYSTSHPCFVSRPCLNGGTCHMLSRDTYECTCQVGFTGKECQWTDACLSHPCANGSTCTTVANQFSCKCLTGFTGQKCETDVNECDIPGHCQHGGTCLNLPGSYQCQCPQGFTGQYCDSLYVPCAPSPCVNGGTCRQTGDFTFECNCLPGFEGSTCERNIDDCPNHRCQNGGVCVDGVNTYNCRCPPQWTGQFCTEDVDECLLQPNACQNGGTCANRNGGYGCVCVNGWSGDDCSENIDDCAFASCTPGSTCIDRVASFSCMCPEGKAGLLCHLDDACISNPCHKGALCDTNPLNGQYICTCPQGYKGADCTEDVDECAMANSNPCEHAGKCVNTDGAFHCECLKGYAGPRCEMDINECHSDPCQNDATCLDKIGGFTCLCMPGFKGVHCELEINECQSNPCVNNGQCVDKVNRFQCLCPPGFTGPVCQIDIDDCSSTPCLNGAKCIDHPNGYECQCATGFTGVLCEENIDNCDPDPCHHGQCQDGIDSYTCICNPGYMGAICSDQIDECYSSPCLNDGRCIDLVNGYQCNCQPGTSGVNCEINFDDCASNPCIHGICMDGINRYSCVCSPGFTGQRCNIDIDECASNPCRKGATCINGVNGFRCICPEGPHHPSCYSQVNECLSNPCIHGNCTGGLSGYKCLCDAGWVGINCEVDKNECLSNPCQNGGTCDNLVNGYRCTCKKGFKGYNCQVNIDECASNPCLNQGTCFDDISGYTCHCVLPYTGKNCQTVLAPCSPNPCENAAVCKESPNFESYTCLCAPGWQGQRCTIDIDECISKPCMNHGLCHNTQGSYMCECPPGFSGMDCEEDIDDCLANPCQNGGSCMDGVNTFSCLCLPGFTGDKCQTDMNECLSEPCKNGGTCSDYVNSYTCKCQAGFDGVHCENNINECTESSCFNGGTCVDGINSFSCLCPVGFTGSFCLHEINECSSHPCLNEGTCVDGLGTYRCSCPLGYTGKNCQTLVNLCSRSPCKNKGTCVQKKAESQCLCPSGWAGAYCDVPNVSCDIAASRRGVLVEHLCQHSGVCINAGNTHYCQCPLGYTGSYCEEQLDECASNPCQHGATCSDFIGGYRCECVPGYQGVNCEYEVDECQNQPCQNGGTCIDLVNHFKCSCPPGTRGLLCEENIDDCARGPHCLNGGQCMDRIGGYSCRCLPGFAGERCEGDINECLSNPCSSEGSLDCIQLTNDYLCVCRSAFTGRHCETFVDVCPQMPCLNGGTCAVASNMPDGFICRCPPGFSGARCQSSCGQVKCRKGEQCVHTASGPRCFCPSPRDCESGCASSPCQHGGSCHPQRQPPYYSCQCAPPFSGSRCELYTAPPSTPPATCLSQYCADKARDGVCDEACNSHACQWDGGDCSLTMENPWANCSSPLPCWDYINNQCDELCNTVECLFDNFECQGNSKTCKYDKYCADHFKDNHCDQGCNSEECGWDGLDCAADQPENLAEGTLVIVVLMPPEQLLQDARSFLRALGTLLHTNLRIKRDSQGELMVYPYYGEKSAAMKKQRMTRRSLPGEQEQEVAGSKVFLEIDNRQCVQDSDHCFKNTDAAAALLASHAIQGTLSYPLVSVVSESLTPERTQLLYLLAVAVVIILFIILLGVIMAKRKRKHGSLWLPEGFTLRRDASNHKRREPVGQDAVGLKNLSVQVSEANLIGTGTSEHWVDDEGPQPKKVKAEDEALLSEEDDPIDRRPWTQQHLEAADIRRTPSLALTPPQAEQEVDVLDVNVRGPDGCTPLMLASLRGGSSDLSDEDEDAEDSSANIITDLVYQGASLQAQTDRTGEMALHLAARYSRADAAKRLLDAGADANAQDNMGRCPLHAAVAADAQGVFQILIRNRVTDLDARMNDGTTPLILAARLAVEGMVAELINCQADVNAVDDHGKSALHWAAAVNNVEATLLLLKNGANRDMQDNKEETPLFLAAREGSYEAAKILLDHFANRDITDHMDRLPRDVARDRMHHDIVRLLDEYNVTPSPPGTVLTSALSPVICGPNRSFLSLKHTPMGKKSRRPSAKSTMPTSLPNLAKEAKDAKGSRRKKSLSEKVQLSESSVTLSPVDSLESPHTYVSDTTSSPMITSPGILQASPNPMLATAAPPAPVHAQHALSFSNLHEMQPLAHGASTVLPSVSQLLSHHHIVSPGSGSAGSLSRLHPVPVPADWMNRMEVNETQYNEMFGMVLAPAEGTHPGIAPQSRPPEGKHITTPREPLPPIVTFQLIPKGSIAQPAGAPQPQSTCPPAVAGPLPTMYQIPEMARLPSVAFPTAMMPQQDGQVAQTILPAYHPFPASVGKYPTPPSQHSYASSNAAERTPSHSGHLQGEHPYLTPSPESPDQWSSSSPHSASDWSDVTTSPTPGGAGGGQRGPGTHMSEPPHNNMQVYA
# Run Description: Notch2 binders on small-molecule microarrays, primary screen, biochemical, small-molecule microarray, 635 nm fluorescence, stem cell growth factors (AID 1073)
# Recorded Conditions: Notch2 binding, higher = more signal
Give the figure by itself; no unit, no explanation.

Examples from the recorded data:
[N-]=[N+]=NCc1ccccc1[C@H]1OC(c2ccc(OCCCO)cc2)=N[C@@]1(Cc1ccccc1N=[N+]=[N-])C(=O)N1CCOCC1: 1.55
C[C@]1(C(=O)NC2CC2)c2ccccc2C(=O)N(Cc2cc(F)cc(C(F)(F)F)c2)[C@H]1c1ccc(CO)cc1: -1.13
C=CCNC(=O)[C@@H]1[C@H]2C(=O)O[C@H](c3ccccc3)[C@H](c3ccccc3)N2[C@H](c2ccc(OCCO)cc2)[C@@]12C(=O)Nc1ccc(C#CC3=CCCCC3)cc12: 1.02
CC(C)(C)OC(=O)CC[C@@]1(C(=O)N2CCOCC2)N=C(c2ccc(OCCCO)cc2)O[C@@H]1c1ccccc1CN=[N+]=[N-]: 1.1
C=C(COC)C(=O)CC[C@H](OC(C)=O)c1ccc(CO)o1: -0.0537

So what does the record say about composite z-score for COc1ccc(C(=O)Nc2cccc(CN3C(=O)[C@]4(O[C@H](CC(=O)N(CCO)Cc5ccccc5)[C@@H]([Si](C)(C)c5ccc(OC)cc5)[C@@H]4C)c4ccccc43)c2)cc1 ? 0.784

Try the molecule O=C1C2C=CC(C(O)C3CC=CCC3)N(Nc3ccc([N+](=O)[O-])cc3)C2C(=O)N1c1ccccc1 (configuration not stated) 1.54
